- condition set: in acetonitrile, 313.15 K
recorded metric: solubility (mole fraction)
In your answer, state the number alone without any accompanying words.

Form field: reported solubility (mole fraction) of "O=C1CCCCCCCCCCC1"
0.637

---

- condition set: in methanol, 283.15 K
recorded metric: solubility (mole fraction)
Keep the answer to the number alone.

What value of measured solubility (mole fraction) is listed for "O=C1CCCCCCCCCCC1" ?
0.0267
